assay: NCI Yeast Anticancer Drug Screen. Data for the sgs1 strain (AID 173);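 also: 0% = growth of vehicle-only control cultures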; conditions: S. cerevisiae sgs1 mutant, at 1.2 µM, active compounds read high
The panel holds about 79,000 compounds, 15% with a hit somewhere; the sample as a whole holds those more often.

compound	scale.unit	growth inhibition
CC(C)=CC(=O)O[C@@H]1CC(C)(C)CC2C3=CCC4[C@]56CC[C@](O)(OC5)C(C)(C)C6CC[C@@]4(C)C3(C)CC[C@]21C(=O)O (stereo not given in full)	%	-3
N#CSc1ccc(S(N)(=O)=O)cc1	%	-68
NC(N)=N/N=C\c1c2ccccc2cc2ccccc12	%	-25
COc1cc2ccc(/C=C\[N+](=O)[O-])cc2cc1OC	%	-4
Nc1ncncc1C(C1=C(O)COC1=O)C1=C(O)COC1=O	%	3

====

assay: NCI Yeast Anticancer Drug Screen. Data for the wt1 strain (AID 149);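 also: 0% = growth of vehicle-treated wt1 cultures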; details: S. cerevisiae wt1 strain (SPY 50644) growth inhibition; at 11.0 µM
The panel holds about 79,000 compounds, 15% with a hit somewhere; the sample as a whole holds those more often. Active and inactive are the calls of the source. No stated cut-off is given here; in the data, active means growth inhibition above about 70%; inactive means the rest.
Labels: active, inactive

In [3]: df
Out[3]:
                                    compound  assigned_label
 0  O=C(CCCN1CCC(O)(c2ccc(Cl)cc2)CC1)c1ccc(F)cc1        inactive
 1  CN(C)CCOc1ccc2c(c1)C/C(=C/c1ncc([N+](=O)[O-])n1C)C2=O        inactive
 2  O=C1C2C(C(=O)N1c1ccc(OCc3ccccc3)cc1)C1c3ccccc3C2C2CCCCN21 (stereo not drawn)        inactive
 3  COc1cc(C2c3cc4c(cc3OC(NNc3ccccc3)C2C)OCO4)cc(OC)c1OC (stereo not drawn)        inactive
 4  Cc1ccc(Nc2nc3c(=O)n(C)c(=O)n(C)c3nc2Nc2ccc(C)cc2)cc1        inactive
 5  O=C(OCC=C1CCCC1)c1cc([N+](=O)[O-])cc([N+](=O)[O-])c1        inactive
 6  CCC(C)COC(=O)c1ccc(N=Cc2ccc(C=Nc3ccc(C(=O)OCC(C)CC)cc3)cc2)cc1 (stereo not drawn)        inactive
 7  COc1ccccc1/C=C1\Sc2scc(-c3cccc([N+](=O)[O-])c3)[n+]2C1=O          active
 8  Cn1c(N)nc(-c2ccc(Cl)cc2)c1SSc1c(-c2ccc(Cl)cc2)nc(N)n1C        inactive
 9  O=[N+]([O-])c1ccc([N+]2=NC(c3ccccc3)=NN(c3ccccc3)C2)cc1        inactive
10                    COc1cccc2nc3ccccc3nc12        inactive
11                             Cc1cc(I)ccc1N        inactive
12  O=C1OC(CCl)CN1/N=C/c1ccc([N+](=O)[O-])o1 (stereo not drawn)        inactive
13  CCOC(=O)c1cc(-c2ccc(Cl)cc2)c([N+](=O)[O-])n1C        inactive
14  Cc1ccc(S(=O)(=O)NNC(=S)Nc2cccc3ccccc23)cc1        inactive
15  Cc1ccc2[nH]c3c(C)c4cc[n+](C)cc4c(C)c3c2c1        inactive
16  O=C1c2ccccc2C(=O)c2c(NC3CCCCC3)ccc(Nc3ccc(S(=O)(=O)O)cc3)c21        inactive
17         O=C(Nc1ccccc1)OCCc1ccc(Cl)c(Cl)c1        inactive
18  O=[N+]([O-])CC(SCc1ccccc1)c1ccc2c(c1)OCO2 (stereo not drawn)          active
19  Cc1cc(S(=O)(=O)/N=C(/NN)NNc2cccc(C(F)(F)F)n2)c(S)cc1Cl        inactive
20                  O=CC=C(c1ccccc1)c1ccccc1        inactive
21                  CC(=O)Nc1ccc(SC(C)=O)cc1        inactive
22                         CCCCCCCCCCC(=O)Cl        inactive
